Test system: NCI-H1618 multicellular tumor spheroid viability
method summary: Anticancer human tumor NCI-H1618 cell line growth inhibition;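 further: spheroids exposed to agents for 7 days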
run parameters: second compound 0.3 µM; first compound 0.949 µM; active compounds read low
// reported viability, T/C per item

Answered cases to consult:
molecule	viability, T/C
Cn1ncnc1[C@H]1c2n[nH]c(=O)c3cc(F)cc(c23)N[C@@H]1c1ccc(F)cc1 + CC[C@@]1(O)C(=O)OCc2c1cc1n(c2=O)Cc2cc3c(CN(C)C)c(O)ccc3nc2-1	1.24%
O=C(c1cc(Cc2n[nH]c(=O)c3ccccc23)ccc1F)N1CCN(C(=O)C2CC2)CC1 + CC[C@@]1(O)C(=O)OCc2c1cc1n(c2=O)Cc2cc3c(CN(C)C)c(O)ccc3nc2-1	1.9%
Cc1sc2c(c1C)C(c1ccc(Cl)cc1)=NC(CC(=O)Nc1ccc(O)cc1)c1nnc(C)n1-2 (centres undefined) + CC[C@@]1(O)C(=O)OCc2c1cc1n(c2=O)Cc2cc3c(CN(C)C)c(O)ccc3nc2-1	0.73%

Below: the item to evaluate.
Response field viability, T/C (NCI-H1618 multicellular tumor spheroid viability) for item CNCc1ccc(-c2cc(-c3nc(-c4ccc(S(=O)(=O)C(C)C)cc4)cnc3N)on2)cc1 + CC[C@@]1(O)C(=O)OCc2c1cc1n(c2=O)Cc2cc3c(CN(C)C)c(O)ccc3nc2-1 : 17.5%
